# Tested on: 616215-338-R-J1-PDC complex spheroid viability;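 note: spheroids exposed to compounds for one week before readout; percent viability relative to DMSO vehicle wells taken as 100%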
# ASSAY_COMMENT: Anticancer human tumor 616215-338-R-J1-PDC patient-derived colon adenocarcinoma cell line growth inhibition [POLQ]
# CONDITION_NOTES: second compound 0.1 µM; first compound 10 µM; stronger effect = lower value
MEASURED_QUANTITY: viability, T/C (%)
Numbers only, in %.

Examples with answers:
Input: Which viability, T/C reading was recorded for the compound C=CC(=O)N1CCN(c2nc(=O)n(-c3c(C)ccnc3C(C)C)c3nc(-c4c(O)cccc4F)c(F)cc23)C(C)C1 (stereo not given) + COC1C(OC(N)=O)C(O)C(Oc2ccc3c(O)c(NC(=O)c4ccc(O)c(CC=C(C)C)c4)c(=O)oc3c2C)OC1(C)C ?
Output: 87.8

Input: Would you mind telling me what viability, T/C value was observed for CCCS(=O)(=O)Nc1ccc(F)c(C(=O)c2c[nH]c3ncc(-c4ccc(Cl)cc4)cc23)c1F + Cc1cccc(N(C)C(=O)C2C(O)CCN2c2nc(C)cc(C(F)(F)F)c2C#N)c1 ?
Output: 11.2

Input: Could you share which viability, T/C value was measured for CCc1cc2c(N3CCc4c(cc(Cn5ccnc5)cc4-c4cn(C)nc4C(F)(F)F)C3=O)cc(C)nc2c(OC)n1 + Cc1cccc(N(C)C(=O)C2C(O)CCN2c2nc(C)cc(C(F)(F)F)c2C#N)c1 ?
Output: 43.2

Input: // returns reported viability, T/C for input O=c1[nH]cc(F)c(=O)[nH]1 + COC1C(OC(N)=O)C(O)C(Oc2ccc3c(O)c(NC(=O)c4ccc(O)c(CC=C(C)C)c4)c(=O)oc3c2C)OC1(C)C
Output: 61.9

Input: Could you share which viability, T/C value was measured for CCc1cc2c(N3CCc4c(cc(Cn5ccnc5)cc4-c4cn(C)nc4C(F)(F)F)C3=O)ccnc2c(OC)n1 + COC1C(OC(N)=O)C(O)C(Oc2ccc3c(O)c(NC(=O)c4ccc(O)c(CC=C(C)C)c4)c(=O)oc3c2C)OC1(C)C ?
Output: 50.3

Input: What value of viability, T/C has been reported for the following compound? C#Cc1c(F)ccc2cc(O)cc(-c3ncc4c(N5CC6CCC(C5)N6)nc(OCC56CCCN5CC(F)C6)nc4c3F)c12 (stereo not given) + Nc1ccc(C#CCN(C(=O)Cc2ncc(C(F)(F)F)cc2C(F)(F)F)c2ccc(F)cc2)nn1
Output: 29.2

For each of the items listed, what is its viability, T/C?
1. COc1cc(C2c3cc4c(cc3C(OC3OC5COC(C)OC5C(O)C3O)C3COC(=O)C23)OCO4)cc(OC)c1O (stereo not given) + Cc1cccc(N(C)C(=O)C2C(O)CCN2c2nc(C)cc(C(F)(F)F)c2C#N)c1
2. CC(C)n1c(=O)n(C)c2cnc3cc(F)c(-c4ccc(OCCCN5CCCCC5)nc4)cc3c21 + COC1C(OC(N)=O)C(O)C(Oc2ccc3c(O)c(NC(=O)c4ccc(O)c(CC=C(C)C)c4)c(=O)oc3c2C)OC1(C)C
3. CCCS(=O)(=O)Nc1ccc(F)c(C(=O)c2c[nH]c3ncc(-c4ccc(Cl)cc4)cc23)c1F + COC1C(OC(N)=O)C(O)C(Oc2ccc3c(O)c(NC(=O)c4ccc(O)c(CC=C(C)C)c4)c(=O)oc3c2C)OC1(C)C
4. CNCc1ccc(-c2[nH]c3cc(F)cc4c3c2CCNC4=O)cc1 + COC1C(OC(N)=O)C(O)C(Oc2ccc3c(O)c(NC(=O)c4ccc(O)c(CC=C(C)C)c4)c(=O)oc3c2C)OC1(C)C
5. CC1COCCN1c1cc(C2(O)CC3CCC(C2)O3)c2cnn(-c3ccn[nH]3)c2n1 (stereo not given) + COC1C(OC(N)=O)C(O)C(Oc2ccc3c(O)c(NC(=O)c4ccc(O)c(CC=C(C)C)c4)c(=O)oc3c2C)OC1(C)C
6. COc1cc2cc(C(=O)CCC(=O)O)sc2cc1OC + COC1C(OC(N)=O)C(O)C(Oc2ccc3c(O)c(NC(=O)c4ccc(O)c(CC=C(C)C)c4)c(=O)oc3c2C)OC1(C)C

Output:
[50.8, 113, 15.2, 83.9, 36.5, 97.2]
